- test-method-notes: nefazodone and metabolite pharmacokinetics in human volunteers: ER v. IR
- measurement-context: plasma, po, 200 mg
Where a name gives a salt, the structure may show the parent alone.
quantity-measured: Tmax

Query: Look up Tmax of CCc1nn(CCCN2CCN(c3cccc(Cl)c3)CC2)c(=O)n1CCOc1ccccc1 [Nefazodone, hydrochloride] and report it.
Result: 5 h

* * *

- test-method-notes: nefazodone and metabolite pharmacokinetics in human volunteers: ER v. IR
- measurement-context: plasma, po, 100 mg
Structures can show the parent of a compound that is named as a salt.
quantity-measured: Tmax (h)
Just the number please, in h, no unit attached.

Query: Provide one value: measured Tmax of CCc1nn(CCCN2CCN(c3cccc(Cl)c3)CC2)c(=O)n1CCOc1ccccc1 [Nefazodone, hydrochloride]
Result: 2
